# credit: PubChem BioAssay (NCI)

Tested on: KM12 colon
experiment_description: NCI tumour cell line growth inhibition, 48 h
*1 amine or outer side, *2 acyl side, *3 side chain or, on linkers, in order; H or OH if unused. Where a SMILES comes first, the peptide text is derived from it. Bridges are numbered along the chain shown (N, C = ends). [ ]: non-standard residue; d: D form. The star is where a group is joined. X38 = CC[C@H](C)[C@@H](N[*:1])[C@@H](O)CC(=O)[*:2]; NMeY = CN[C@@H](Cc1ccc(O)cc1)C(=O)O; dNMeL = CN[C@H](CC(C)C)C(=O)O; Hiv = CC(C)[C@H](O)C(=O)O; Pyruvoyl = CC(=O)C(=O)*
quantity_measured: TGI

Below, each entry is followed by its recorded TGI result.
INSERT INTO results (compound, recorded_result) VALUES
  ('CC[C@H](C)[C@H]1NC(=O)[C@@H](NC(=O)[C@@H](CC(C)C)N(C)C(=O)[C@@H]2CCCN2C(=O)C(C)=O)[C@@H](C)OC(=O)[C@H](Cc2ccc(OC)cc2)N(C)C(=O)[C@@H]2CCCN2C(=O)[C@H](CC(C)C)NC(=O)[C@H](C(C)C)OC(=O)C[C@@H]1O (Pyruvoyl-P[dNMeL]T[X38][Hiv]LP[NMeY](Me); ester 3-C)', '0.151 µM'),
  ('N#Cc1ncc(/N=C/c2ccc(N(CCCl)CCCl)cc2)s1', '> 100 µM'),
  ('O=C(CCN1CCCC1)Nc1ccc2c(NCc3ccc(F)cc3)c3ccccc3nc2c1', '1.62 µM');

TGI reported for this compound CC(C)c1ccccc1SC1CC(=O)CC(Sc2ccccc2C(C)C)C12O[C@H](c1ccccc1)[C@@H](c1ccccc1)O2 (stereo partly drawn) : > 100 µM

TGI reported for this compound `COc1cc(Br)c(OC)c2c(OC)cc(C)cc12` : > 100 µM

TGI reported for this compound `O=C1c2cc3c(cc2CC12Cc1cc4c(cc1C2=O)CCCC4)CCCC3` : > 100 µM

TGI reported for this compound `Cn1c(O)c(C(=O)Nc2cccs2)c(=O)[nH]c1=S` : 33.4 µM

TGI reported for this compound `CCc1ccc(NC(=O)Nc2c[nH]c3ccccc23)cc1` : > 43.4 µM
